Assay: Oral bioavailability in rat
Type: ADME, organism-based
Conditions: in vivo
MEASUREMENT LABEL: bioavailability (%)
One number for each entry, in %.

Challenge: bioavailability lookup needed for CN(C)C(=O)N[C@H]1CC[C@H](CCN2CCN(c3cccc(Cl)c3Cl)CC2)CC1.Cl [CARIPRAZINE HYDROCHLORIDE] , thanks.
Response given: 52

====

Target: UniProt:P21918
Sequence (P21918 whole entry): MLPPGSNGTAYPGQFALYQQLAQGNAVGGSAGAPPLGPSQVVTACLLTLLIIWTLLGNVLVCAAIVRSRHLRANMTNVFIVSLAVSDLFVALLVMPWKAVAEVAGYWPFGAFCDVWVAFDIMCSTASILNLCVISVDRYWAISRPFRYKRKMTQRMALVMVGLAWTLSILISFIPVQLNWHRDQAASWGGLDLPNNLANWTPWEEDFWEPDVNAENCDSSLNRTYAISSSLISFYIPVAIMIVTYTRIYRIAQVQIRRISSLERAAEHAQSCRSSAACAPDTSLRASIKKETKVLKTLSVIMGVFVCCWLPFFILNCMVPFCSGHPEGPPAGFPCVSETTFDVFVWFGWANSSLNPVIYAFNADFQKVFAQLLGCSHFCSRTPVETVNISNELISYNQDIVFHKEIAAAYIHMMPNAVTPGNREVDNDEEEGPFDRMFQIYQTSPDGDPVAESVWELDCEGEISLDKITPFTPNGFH
MEASUREMENT LABEL: IC50

Challenge: IC50 lookup needed for CN(C)C(=O)N[C@H]1CC[C@H](CCN2CCN(c3cccc(Cl)c3Cl)CC2)CC1.Cl [CARIPRAZINE HYDROCHLORIDE] , thanks.
Response given: > 1000 nM
